assay: Scavenging activity of compound (superoxide radicals generated by the oxidation of xanthine and xanthine oxidase),expressed as the percent quenching of luminescence of lucigenin at 50 nM concentration
Measured Free radical scavenging accompanies every entry in the list below.
Note: unit % is implicit; provide only the numeric part.

Sample records with Free radical scavenging:
In [3]: df
Out[3]:
                               smiles_entry             assay_metric  test_result
0    O=C1/C(=C/c2ccccc2O)CCC/C1=C\c1ccccc1O  Free radical scavenging           42
1     O=C1/C(=C/c2ccccc2)CCCC/C1=C\c1ccccc1  Free radical scavenging           11
2       O=C1/C(=C/c2ccccc2)CC/C1=C\c1ccccc1  Free radical scavenging           10
3  COc1ccccc1/C=C1\CCC/C(=C\c2ccccc2OC)C1=O  Free radical scavenging           19
4      O=C1/C(=C/c2ccccc2)CCC/C1=C\c1ccccc1  Free radical scavenging           11
5  COc1cc(/C=C2\CCC/C(=C\c3ccc(O)c(OC)c3)C2=O)ccc1O  Free radical scavenging           30

We now examine a further compound.
Entry `O=C1/C(=C/c2ccccc2O)CC/C1=C\c1ccccc1O` has what Free radical scavenging?
70
